// provenance: PubChem BioAssay (NCATS)

Assay: Quantitative High-Throughput drug screen in 47 multiple myeloma cell lines against the NCATS MIPE library collection: EJM_DSMZ cell viability assay (AID 1918926; further: nearly all actives have a fitted effect of over 30% in size)
Conditions: EJM myeloma cell viability, CellTiter-Glo ATP, 48 h; series mostly up to 45.8 µM
Inconclusive results are not listed. Calls of active or inactive are those of the source. The call rests on the fitted dose curve; in most records, active means well fitted cell-killing curve with a large enough effect; inconclusive means small, poorly fitted or top-dose-only effect, or effect the other way; inactive means no such curve, though single readings can be large or run the other way. Peptide text beside a SMILES is read from it.
Could you please pick one outcome from this set? active, inactive

Could you please tell me the result logged for COC(=O)C1=C(C)NC(C)=C(C(=O)OC(C)C)C1c1cccc2nonc12 (centres undefined) in this assay?
inactive

Could you please tell me the result logged for CC1Cc2ccccc2N1NC(=O)c1ccc(Cl)c(S(N)(=O)=O)c1 (centres undefined) in this assay?
inactive

Could you please tell me the result logged for O=C(O)c1cc(=O)c2c(OCC(O)COc3cccc4oc(C(=O)O)cc(=O)c34)cccc2o1 in this assay?
inactive

Could you please tell me the result logged for O=Nc1c(-c2c(O)[nH]c3cc(Br)ccc23)[nH]c2ccccc12 in this assay?
active

Could you please tell me the result logged for O=c1c(O)c(-c2cc(O)c(O)c(O)c2)oc2cc(O)cc(O)c12 in this assay?
inactive

Could you please tell me the result logged for Cc1cc(C2CCCCC2)n(O)c(=O)c1 in this assay?
active

Could you please tell me the result logged for O=C1NC(=O)C(c2ccccc2[N+](=O)[O-])=C1Nc1ccc(O)c(Cl)c1 in this assay?
inactive

Could you please tell me the result logged for Nc1cccc2c1CN(C1CCC(=O)NC1=O)C2=O (centres undefined) in this assay?
inactive

Could you please tell me the result logged for NC(=O)Cc1cccc(C(=O)c2ccccc2)c1N in this assay?
inactive

Could you please tell me the result logged for CN(C)CCc1c[nH]c2ccc(Cn3cncn3)cc12 in this assay?
inactive

Could you please tell me the result logged for CC(S)C(=O)NCC(=O)O (centres undefined) in this assay?
inactive

Could you please tell me the result logged for O=c1c(O)c(-c2ccc(O)cc2O)oc2cc(O)cc(O)c12 in this assay?
inactive

Could you please tell me the result logged for CN(C)c1ccc(O)c2c1C[C@H]1C[C@H]3[C@H](N(C)C)C(=O)C(C(N)=O)=C(O)[C@@]3(O)C(=O)C1=C2O in this assay?
active

Could you please tell me the result logged for CC1=C(C)C(=O)C(C(CCCCCC(=O)O)c2ccccc2)=C(C)C1=O (centres undefined) in this assay?
inactive

Could you please tell me the result logged for CC(=O)N1CCN(c2ccc(OC[C@H]3CO[C@](Cn4ccnc4)(c4ccc(Cl)cc4Cl)O3)cc2)CC1 in this assay?
active

Could you please tell me the result logged for NC(=NCc1ccccc1)NC(=O)c1nc(Cl)c(N)nc1N in this assay?
inactive

Could you please tell me the result logged for CCOC(=O)C(C)Oc1cccc2c(=O)n(CC(=O)Nc3ccc4c(c3)OCCO4)ccc12 (centres undefined) in this assay?
inactive

Could you please tell me the result logged for CCCCc1ccc2nc(NC(=O)OC)[nH]c2c1 in this assay?
active

Could you please tell me the result logged for COC(=O)[C@H](Cc1ccccc1)NC(=O)[C@@H](N)CC(=O)O (H-Asp-Phe-OMe) in this assay?
inactive

Could you please tell me the result logged for N=C(N)c1ccc2cc(OC(=O)c3ccc(N=C(N)N)cc3)ccc2c1 in this assay?
active

Could you please tell me the result logged for Cc1c(OCC(F)(F)F)ccnc1CS(=O)c1nc2ccccc2[nH]1 (centres undefined) in this assay?
inactive

Could you please tell me the result logged for COc1ccccc1N1CCN(CCN(C(=O)C2CCCCC2)c2ccccn2)CC1 in this assay?
inactive

Could you please tell me the result logged for CC(C)[N+]1(C)[C@@H]2CC[C@H]1CC(OC(=O)C(CO)c1ccccc1)C2 (some centres undefined) in this assay?
inactive

Could you please tell me the result logged for CC1=C(C(=O)O)N2C(=O)[C@@H](NC(=O)[C@H](N)C3=CCC=CC3)[C@H]2SC1 in this assay?
inactive

Could you please tell me the result logged for O=C(OC1C[C@H]2CC[C@@H](C1)[N+]21CCCC1)C(O)(c1ccccc1)c1ccccc1 (some centres undefined) in this assay?
inactive

Could you please tell me the result logged for Cc1cc2cc3c(C)cc(=O)oc3c(C)c2o1 in this assay?
active

Could you please tell me the result logged for COc1cc(C(C)=O)ccc1OCCCN1CCC(c2noc3cc(F)ccc23)CC1 in this assay?
inactive

Could you please tell me the result logged for Cc1nc(-c2ccc(OCC(C)C)c(C#N)c2)sc1C(=O)O in this assay?
inactive

Could you please tell me the result logged for Oc1ccc(OCc2ccccc2)cc1 in this assay?
inactive

Could you please tell me the result logged for O=C1c2ccccc2-c2n[nH]c3cccc1c23 in this assay?
active

Could you please tell me the result logged for Cc1c(C(=O)NN2CCCCC2)nn(-c2ccc(Cl)cc2Cl)c1-c1ccc(Cl)cc1 in this assay?
inactive

Could you please tell me the result logged for O=P(O)(O)C(O)(Cn1ccnc1)P(=O)(O)O in this assay?
inactive

Could you please tell me the result logged for CNC[C@@H](O)[C@@H](O)[C@H](O)[C@H](O)CO in this assay?
inactive

Could you please tell me the result logged for O=C1CCc2ccc(OCCCCN3CCN(c4cccc(Cl)c4Cl)CC3)cc2N1 in this assay?
inactive

Could you please tell me the result logged for COC(=O)C1=C(C)NC(C)=C(C(=O)OCCCN2CCC(c3ccccc3)(c3ccccc3)CC2)C1c1cccc([N+](=O)[O-])c1 (centres undefined) in this assay?
inactive

Could you please tell me the result logged for CCC(C)(Oc1ccc(C2(c3ccc(OC(C)(CC)C(=O)O)cc3)CCCCC2)cc1)C(=O)O (centres undefined) in this assay?
inactive

Could you please tell me the result logged for CCCS(=O)c1ccc2nc(NC(=O)OC)[nH]c2c1 (centres undefined) in this assay?
inactive

Could you please tell me the result logged for COc1c2occc2cc2ccc(=O)oc12 in this assay?
inactive

Could you please tell me the result logged for C[C@@H](N)C1CCC(C(=O)Nc2ccncc2)CC1 (some centres undefined) in this assay?
inactive

Could you please tell me the result logged for C[C@@H](c1ncncc1F)[C@](O)(Cn1cncn1)c1ccc(F)cc1F in this assay?
inactive

Could you please tell me the result logged for COc1cc2nc(N3CCN(C(=O)C4CCCO4)CC3)nc(N)c2cc1OC (centres undefined) in this assay?
inactive

Could you please tell me the result logged for O=C1c2c(O)cc(O)cc2OC(c2ccc(O)c(O)c2)C1O (centres undefined) in this assay?
inactive

Could you please tell me the result logged for C[C@]12CCC(=O)C=C1CC[C@@H]1[C@H]2[C@@H](O)C[C@@]2(C)[C@H]1CC[C@]2(O)C(=O)CO in this assay?
inactive

Could you please tell me the result logged for COc1cc(OC)c(C(=O)CCCN2CCCC2)c(OC)c1 in this assay?
inactive
